The measurements presented in this section are drawn from BindingDB's records for patent US9527838.

biological target: Hexokinase-4 (Human); assay: Glucokinase Activity Assay
Sequence (P35557 whole entry, other chains not shown): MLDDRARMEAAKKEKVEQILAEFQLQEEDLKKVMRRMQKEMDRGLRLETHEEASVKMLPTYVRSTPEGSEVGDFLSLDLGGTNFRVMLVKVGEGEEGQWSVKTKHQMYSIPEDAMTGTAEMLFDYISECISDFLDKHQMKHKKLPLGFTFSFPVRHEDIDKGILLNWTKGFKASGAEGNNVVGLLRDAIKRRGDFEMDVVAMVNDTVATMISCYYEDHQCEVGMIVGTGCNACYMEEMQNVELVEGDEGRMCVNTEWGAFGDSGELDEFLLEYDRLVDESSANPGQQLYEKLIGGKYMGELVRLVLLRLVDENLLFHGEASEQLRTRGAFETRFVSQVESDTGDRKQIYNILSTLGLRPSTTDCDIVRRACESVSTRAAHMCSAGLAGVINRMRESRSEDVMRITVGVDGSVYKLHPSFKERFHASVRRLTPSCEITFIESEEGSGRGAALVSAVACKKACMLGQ
readout-type: pEC50
The value called pEC50 is obtained by taking minus log10 of the concentration in mol/L.

**Query** Given CCOC(=O)Cc1nc(NC(=O)c2nc(Sc3ccc(F)cc3)ccc2Sc2ccc(F)cc2)sc1Cl , state its recorded pEC50.
**Result** 4.80

**Query** Given CCOC(=O)CSc1cnc(NC(=O)c2nc(Sc3ccc(F)cc3)ccc2Sc2ccc(F)cc2)s1 , state its recorded pEC50.
**Result** 6.41

**Query** Given CCOC(=O)C(C)(C)CSc1cnc(NC(=O)c2nc(Sc3nncn3C)ccc2Sc2ccc(F)cc2)s1 , state its recorded pEC50.
**Result** 7.77
